Test system: SK-MEL-5 melanoma
Protocol Description: NCI-60 one-dose screen, 48 h (100 = growth as untreated, 0 = no growth, -100 = all killed)
Experimental Parameters: 10 µM unless noted
Experimental: Growth inhibition of the SK-MEL-5 human tumor cell line is measured as a screen for anti-cancer activity. Cells are grown in 96 well plates and exposed to the test compound for 48 hours. Compounds are tested at a single concentration, which is 10^-5 M for most compounds. The reported endpoint is percent growth (GI% or GIPRCNT), where numbers from 0 - 100% represent growth inhibition, and numbers from -100% - 0 represent cell death. For example, a value of 40 represents 60% growth inhibition. […]
About 83,000 compounds went through this panel and 20% of them were active in at least one assay; those are over-represented in the sample as a whole.
Provide the reported growth of each item.
Give bare numbers, in %.

# annotated cases, reported growth shown
Compound	System	growth (%)
NS(=O)(=O)c1ccc(Nc2nc(SCC(=O)c3ccc(Cl)cc3)nc3ccccc23)cc1	SK-MEL-5 melanoma	95.3
N#Cc1ccc(/C=N/NC(=O)c2[nH]c3ccc(Br)cc3c2-c2ccccc2)s1	SK-MEL-5 melanoma	-40.9
O=C(N/N=C/c1ccco1)c1[nH]c2ccc(Br)cc2c1-c1ccccc1	SK-MEL-5 melanoma	-16.2
COc1cc(/C=C/C(=O)c2ccc(C(F)(F)F)cc2)ccc1Oc1nc(NCCO)nc(N2CCOCC2)n1	SK-MEL-5 melanoma	94
CC(O)C(NC(=O)C1CCCN1C(=O)CNC(=O)C1CC(=O)NCC(=O)NC(Cc2c[nH]c3ccccc23)C(=O)NC(Cc2ccc(O)cc2)C(=O)NCC(=O)NC(CO)C(=O)NC(CCC(N)=O)C(=O)NC(Cc2c[nH]c3ccccc23)C(=O)N1)C(=O)NCC(=O)NC(CCC(N)=O)C(=O)NC(CCCNC(=N)N)C(=O)NC(CC(=O)O)C(=O)O (stereo not drawn)	SK-MEL-5 melanoma	101
O=C(Oc1ccc2ccc(=O)oc2c1)c1ccc(Cl)cc1	SK-MEL-5 melanoma	101

Can you give me growth for all of these, one by one?
1. COc1ccc(/C=N/NC(=O)c2[nH]c3ccc(Br)cc3c2-c2ccccc2)s1
2. COc1cccc(N2CCN(c3ncnc4c3[nH]c3ccc(F)cc34)C[C@@H]2C)c1
3. CCCCN1C(=O)/C(=c2\sc3n(c2=O)C2C(NN=3)N(CC)C(=O)N2CC)c2cc(Cl)ccc21 (stereo not drawn)

Found:
[-24.4, -90.9, 66]

Can you give me growth for all of these, one by one?
1. COc1cccc(-c2nn(-c3ccccc3)cc2-c2ccnc(N3CCN(C(=O)Nc4ccc(F)cc4)CC3)c2)c1
2. N#Cc1nc(-c2ccccc2)oc1S(=O)(=O)N1CCCCC1
3. Oc1c(Cl)cc(Cl)c2ccc(CN3CCCCC3)nc12
4. O=C(N/N=C/c1cccs1)c1[nH]c2ccc(Br)cc2c1-c1ccccc1

Found:
42.5
93.7
33.1
-36.7

Can you give me growth for all of these, one by one?
1. Clc1ccc2oc3c(NCCCn4ccnc4)c4ccccc4nc3c2c1
2. c1ccc2c(NCCCN3CCOCC3)c3oc4ccccc4c3nc2c1
3. COc1cc2nc(-c3ccc(C(F)(F)F)cc3)cc(OCCCNCC3CCCO3)c2cc1OC (stereo not drawn)
4. COC(=O)c1ccc(NC(=S)N2CCc3ccc([N+](=O)[O-])cc3C2)cc1O

Found:
[78, -90.4, 4.75, 100]

Lookup: Look up growth: "Cc1sc2nc(NCc3ccccc3Cl)[nH]c(=O)c2c1C"
Found: 72.9
